- assay-info: Cmax in Sprague-Dawley rat at 150 mg/kg, ig administered for 28 days by LC-MS/MS analysis
- Format: ADME, organism-based
- Design: route intragastric, dose 150 mg/kg, time 28 day
- protocol-conditions: in vivo, po

{"columns": ["smiles-data", "Cmax [ng/mL]"],
 "data": [
  ["CN1CCC(=C(F)c2cccc(NC(=O)c3c(F)cc(F)cc3F)n2)CC1", 841]
]}

* * *

- tested-system: 5-hydroxytryptamine receptor 1B (Homo sapiens, UniProt P28222)
- Sequence (P28222 whole entry): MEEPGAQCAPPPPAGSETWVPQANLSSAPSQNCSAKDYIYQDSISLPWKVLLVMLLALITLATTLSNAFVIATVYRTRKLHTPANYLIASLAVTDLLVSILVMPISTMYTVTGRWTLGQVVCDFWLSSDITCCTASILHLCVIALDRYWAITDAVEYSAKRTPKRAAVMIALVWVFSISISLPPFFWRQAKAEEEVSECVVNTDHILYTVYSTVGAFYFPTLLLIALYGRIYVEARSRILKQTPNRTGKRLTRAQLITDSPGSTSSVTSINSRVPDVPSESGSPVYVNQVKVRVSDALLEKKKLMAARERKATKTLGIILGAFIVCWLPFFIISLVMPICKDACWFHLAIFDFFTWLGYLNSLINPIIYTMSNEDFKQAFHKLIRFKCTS
pIC50: −log10 of the molar value.
assay-readout: pIC50

{"columns": ["smiles-data", "assay-readout", "result"],
 "data": [
  ["CN1CCC(=C(F)c2cccc(NC(=O)c3c(F)cc(F)cc3F)n2)CC1", "pIC50", 5.67]
]}
